Target: Pdr3 (UniProt P33200)
Sequence: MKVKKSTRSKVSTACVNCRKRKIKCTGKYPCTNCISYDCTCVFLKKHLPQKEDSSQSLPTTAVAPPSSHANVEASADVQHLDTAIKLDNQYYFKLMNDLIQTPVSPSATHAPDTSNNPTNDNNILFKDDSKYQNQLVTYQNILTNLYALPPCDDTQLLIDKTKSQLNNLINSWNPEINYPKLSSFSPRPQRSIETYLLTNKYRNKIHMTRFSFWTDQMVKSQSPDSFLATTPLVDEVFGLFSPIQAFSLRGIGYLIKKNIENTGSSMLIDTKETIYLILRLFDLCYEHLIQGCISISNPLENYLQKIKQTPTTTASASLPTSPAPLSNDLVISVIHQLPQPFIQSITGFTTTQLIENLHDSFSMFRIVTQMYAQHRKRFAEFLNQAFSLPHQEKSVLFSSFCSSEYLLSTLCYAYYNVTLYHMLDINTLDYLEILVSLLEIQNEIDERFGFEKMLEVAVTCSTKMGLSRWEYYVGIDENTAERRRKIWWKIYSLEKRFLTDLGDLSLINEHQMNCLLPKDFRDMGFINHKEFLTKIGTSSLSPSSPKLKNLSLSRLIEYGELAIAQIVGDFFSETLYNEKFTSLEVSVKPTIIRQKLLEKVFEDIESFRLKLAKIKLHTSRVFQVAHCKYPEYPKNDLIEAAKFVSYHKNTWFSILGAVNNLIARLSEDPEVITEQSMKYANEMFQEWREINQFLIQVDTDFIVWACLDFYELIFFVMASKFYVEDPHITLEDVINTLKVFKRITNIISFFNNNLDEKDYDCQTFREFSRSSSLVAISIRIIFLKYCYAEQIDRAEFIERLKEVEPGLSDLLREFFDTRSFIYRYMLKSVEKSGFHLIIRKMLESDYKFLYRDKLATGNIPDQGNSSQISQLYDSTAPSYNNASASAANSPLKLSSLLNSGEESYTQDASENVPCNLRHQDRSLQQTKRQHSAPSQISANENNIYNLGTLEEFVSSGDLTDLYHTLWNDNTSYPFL
Experiment: PBM E-score (8-mer binding enrichment) (E-score (-0.5 to 0.5)); higher = stronger / more preferred TF binding
Conditions: protein concentration: 200 nM; construct: GST-full length
Whole data set: some 33,000 sequences, median “E-score (-0.5 to 0.5)” near -0.035, cut for the highest 2% near 0.35. The full list was thinned out, with the highest values kept by preference.
Please use MET whenever PBM E-score is not below 0.2, and NOT MET whenever it is.

Worked examples follow.
1. AGGGAATC :: NOT MET
2. GGCTAAAC :: NOT MET
3. CGCCTGCC :: NOT MET
4. ATGGAAAG :: NOT MET
5. AGGAAAGA :: NOT MET

(Q) // inclusive: PBM E-score at least 0.2? input: CGGAAAGA
(A) MET

(Q) // inclusive: PBM E-score at least 0.2? input: AGTTCCGG
(A) MET

(Q) // inclusive: PBM E-score at least 0.2? input: CCGGAAAA
(A) MET
